target: pooled human IgG (human IgG1,2,3 and 4)
observed property: Enzyme Activity Endpoint Assay: Fab′2

[
  {
    "protein": "PRT-109 (protein) MRNATEAYAKEVPHTITSVWTKGVTPLTPEQFRYNNEDVIHAPYVAHQGWYDITKTFDGKDNLLCGAATAGNMLHWWFDQNKTEIEAYLSKHPEKQKIIFNNQELFDLKAAIDTKDSQTNSQLFNYFRDKAFPNLSARQLGVMPDLVLDMFINGYYLNVFKTQSTDVNRPYQDKDKRGGIFDAVFTRGDQTTLLTARHDLKNKGLNEISTLIKQELTEGKALALSHTYANVSISHVINLWGADFNAEGNLEAIYVTDSDDNASIGMKKYFVGVNAAGKVAISAKKIEGENIGAQVLGLFTLSSGKDIWQKLS",
    "observed property": "Enzyme Activity Endpoint Assay: Fab′2",
    "value measured": "457 ng/µL"
  },
  {
    "protein": "PRT-244 (protein) MVTSVWTKGVTPPANFTQGEDVFHAPYVANQGWYDITKTFNGKDDLLCGAATAGNMLHWWFDQNKDQIKRYLEEHPEKQKINFNGEQMFDVKEAIDTKNHQLDSKLFEYFLEKAFPNLSTKHLGVFPDHVIDMFINGYRLSLLNHGPTPVKEGSKDPRGGIFDAVFTRGDQSKLLTSRHDFKEKNLKEISDLIKKELTEGKALGLSHTYANVRINHVINLWGADFDSNGNLKAIAVTDSDSNASIGMKKYFVGVNSSGKVAISAKEIKEDNIGAQVLGLFTLSTGQDSWNQTN",
    "observed property": "Enzyme Activity Endpoint Assay: Fab′2",
    "value measured": "998 ng/µL"
  },
  {
    "protein": "PRT-494 (protein) MVTSVWTKGVTPPTDFIKGEDVFHAPYKAGQGWYDITKTFNGKDDLLCGAATAGNMLHWWFDQNKEYIEAYLKKHPEKQKIMFGDQELLDVRKAINTKGSQKNSELFNYFRDKAFPNLSARRLGVMPDLVLDMFINGYYLNVTKTQTTDVNRTYQEKDKRGGIFDAVFTRGDQSKLLTSRHDFKEKGLKEISDLIKQELTEGKALGLSHTYANVRINHVINLWGADFDSDGNLKAIYVTDSDSNASIGMKKYFVGVNSAGKVAISAKEIKEDNIGAQVLGLFTLSTGQDIWNQTNLEHHHHHH",
    "observed property": "Enzyme Activity Endpoint Assay: Fab′2",
    "value measured": "1210 ng/µL"
  },
  {
    "protein": "PRT-276 (protein) MVTSVWTKGVTPPTDFIYGEDVLHAPYKAGQGWYDITKTFNGKDNLLCGAATAGNMLHWWFDQNKEQIENYLKKHPEKQKIIFNNQELFDLKAAIDTKDSQLDSKLFEYFLEKAFPNLSTKHLGVFPDHVIDMFINGYRLSLLNHGPTPVKRGSKDKRGGIFDAVFTRGVQSKLLTNRHDLKNKTLKEISDLIKQELTEGKALGISHTYANVRINHVINLWGADFDAEGNLEAIAVTDSDTNASIGMKKYFVGVNSSGKVAISAKEIEEDNIGAQVLGLFTLSTGQDIWNQTN",
    "observed property": "Enzyme Activity Endpoint Assay: Fab′2",
    "value measured": "912 ng/µL"
  }
]

Values were extracted from patent US20250027068.
